Recorded viscosity by entry
Conditions: 333.15 K; 101.33 kPa; Liquid; Concentric cylinders viscometry
State just the number; it will be interpreted in mPa·s.

Q: # query: viscosity of entry CCc1cccc[n+]1CC.O=S(=O)([N-]S(=O)(=O)C(F)(F)F)C(F)(F)F [1,2-diethylpyridin-1-ium bis((trifluoromethyl)sulfonyl)imide]
Ans: 19.4

Q: # query: viscosity of entry `CCCc1cccc[n+]1CC.O=S(=O)([N-]S(=O)(=O)C(F)(F)F)C(F)(F)F`
Ans: 24.59

Q: # query: viscosity of entry `CCCCCCc1cccc[n+]1CC.O=S(=O)([N-]S(=O)(=O)C(F)(F)F)C(F)(F)F`
Ans: 26.87

Q: # query: viscosity of entry `CCCCCCCCc1cccc[n+]1CC.O=S(=O)([N-]S(=O)(=O)C(F)(F)F)C(F)(F)F`
Ans: 33.06

###

Test: molar heat capacity at constant pressure
Conditions: 298.15 K; 101.33 kPa; Liquid; Drop calorimetry
observable: molar heat capacity at constant pressure (J/K/mol)
State just the number; it will be interpreted in J/K/mol.

Please review the following examples before continuing.
Q: # query: molar heat capacity at constant pressure of entry `CCCc1cccc[n+]1CC.O=S(=O)([N-]S(=O)(=O)C(F)(F)F)C(F)(F)F`
Ans: 593.9

Q: # query: molar heat capacity at constant pressure of entry `CCCCCCc1cccc[n+]1CC.O=S(=O)([N-]S(=O)(=O)C(F)(F)F)C(F)(F)F`
Ans: 685.5

---
Q: # query: molar heat capacity at constant pressure of entry `CCCCCCCc1cccc[n+]1CC.O=S(=O)([N-]S(=O)(=O)C(F)(F)F)C(F)(F)F`
Ans: 717.5

###

Conditions: 363.15 K; 101.33 kPa; Liquid; Vibrating tube method
observable: mass density (kg/m3)
State just the number; it will be interpreted in kg/m3.

Please review the following examples before continuing.
Q: # query: mass density of entry `CCCc1cccc[n+]1CC.O=S(=O)([N-]S(=O)(=O)C(F)(F)F)C(F)(F)F`
Ans: 1387.5

Q: # query: mass density of entry `CCCCCCc1cccc[n+]1CC.O=S(=O)([N-]S(=O)(=O)C(F)(F)F)C(F)(F)F`
Ans: 1288.8

Shift focus to the following entry.
Q: # query: mass density of entry `CCCCCCCc1cccc[n+]1CC.O=S(=O)([N-]S(=O)(=O)C(F)(F)F)C(F)(F)F`
Ans: 1266
